This listing pairs binders with measured glycan array binding signal (z-score).
target: Gal3S(b1-4)GlcNAc6S; assay: glycan array binding signal (z-score within array); higher = stronger binding; conditions: glycan notation: IUPAC condensed, linker removed
Many of the other results were omitted from the sample, so the strongest signals are more common in it than they were.
endpoint.name: glycan array binding signal (z-score)

* SEX4 (Arabidopsis thaliana), Q944A8 (protein) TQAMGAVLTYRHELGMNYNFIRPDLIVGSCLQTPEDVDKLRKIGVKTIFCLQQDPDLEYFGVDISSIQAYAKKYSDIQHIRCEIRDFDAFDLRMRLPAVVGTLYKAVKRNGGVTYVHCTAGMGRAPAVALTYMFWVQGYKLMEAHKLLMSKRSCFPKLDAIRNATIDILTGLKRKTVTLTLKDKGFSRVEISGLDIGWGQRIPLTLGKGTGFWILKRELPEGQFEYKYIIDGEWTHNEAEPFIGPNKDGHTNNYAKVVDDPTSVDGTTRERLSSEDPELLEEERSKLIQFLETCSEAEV | 0.229
* S100A12 (Homo sapiens), P80511 (protein) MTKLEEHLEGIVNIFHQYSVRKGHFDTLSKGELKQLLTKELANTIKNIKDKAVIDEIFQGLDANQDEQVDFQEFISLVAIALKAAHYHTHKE | 2.67
* FBG3 (Homo sapiens), Q9H4M3 (protein) MAVGNINELPENILLELFTHVPARQLLLNCRLVCSLWRDLIDLVTLWKRKCLREGFITEDWDQPVADWKIFYFLRSLHRNLLHNPCAEEGFEFWSLDVNGGDEWKVEDLSRDQRKEFPNDQVKKYFVTSYYTCLKSQVVDLKAEGYWEELMDTTRPDIEVKDWFAARPDCGSKYQLCVQLLSSAHAPLGTFQPDPATIQQKSDAKWREVSHTFSNYPPGVRYIWFQHGGVDTHYWAGWYGPRVTNSSITIGPPLP | 2.99
